Assay Info: Average score of NAC and NAL depletion and phototoxicity or photoallergy determination, fluorescence detection
Condition Notes: under light irradiation, single compound
Measure: Average score (%)
A number alone suffices; assume %.

Some molecules with known Average score (%) results, for comparison:
| Molecule | Average score (%) |
| --- | --- |
| Cc1c([N+](=O)[O-])c(C)c([N+](=O)[O-])c(C(C)(C)C)c1[N+](=O)[O-] [No. 18, Musk xylene, reference compound] | 47.6 |
| CC(O)CO (racemic) [No. 54, Propylene glycol] | 0.3 |
| CN(C)[C@@H]1C(=O)C(C(N)=O)=C(O)[C@@]2(O)C(=O)C3=C(O)c4c(O)cccc4[C@@](C)(O)[C@H]3C[C@@H]12 [No. 36, Tetracycline, reference compound] | 64.3 |
| Cc1ccc(C=C2C(=O)C3(C)CCC2C3(C)C)cc1 (centres unmarked) [No. 39, 4′-Methylbenzylidene camphor] | 2.0 |
| CC1(C)S[C@@H]2[C@H](NC(=O)Cc3ccccc3)C(=O)N2[C@H]1C(=O)O [No. 44, Penicillin G, reference compound] | 1.8 |
| CC(C)O [No. 47, 2-Propanol] | 0.2 |
| COc1c2occc2cc2ccc(=O)oc12 [No. 3, 8-Methoxypsoralen, reference compound] | 72.0 |

Attention now turns to another entry.
Q) Item under review: CCO [No. 50, Ethanol] . Reported Average score (%)?
A) 0.0

----------
Assay Info: NAL depletion under and without ultraviolet irradiation, HPLC with UV detection (281 nm)
Condition Notes: 25° C. 24 hours light-shielded, test substance solution 1 mmol/L
Measure: NAL Depletion (%) without light irradiation
Give the number; % is assumed, so skip it.

Q) What value of NAL Depletion (%) without light irradiation has been recorded for this entry: CN(C)C1C(O)=C(C(N)=O)C(=O)C2(O)C(O)=C3C(=O)c4c(O)cccc4C(C)(O)C3CC12 (stereo not drawn) [compound 36]
A) 5.1

Q) Any idea what NAL Depletion (%) without light irradiation was measured for CC(CN1c2ccccc2Sc2ccccc21)N(C)C.Cl (racemic) [compound 14] ?
A) 3.5

Q) What value of measured NAL Depletion (%) without light irradiation is listed for CC1(C)SC2C(NC(=O)Cc3ccccc3)C(=O)N2C1C(=O)O (stereo not drawn) [compound 44] ?
A) 1.9

Q) Reported NAL Depletion (%) without light irradiation, compound CCO [compound 50] : ____
A) 1.3

----------
Listing of entries alongside the reported Average score (%) without light irradiation.
Assay Info: Average score of NAC and NAL depletion and phototoxicity or photoallergy determination, UV detection
Condition Notes: average of NAC and NAL depletion
Use % as the unit, but write only the number.

| Molecule | Value Reported |
| --- | --- |
| COc1c2ccoc2cc2oc(=O)ccc12 [compound 31] | 0.6 |
| CC(O)CCO (centres unmarked) [compound 46] | 0.0 |

Q) Requested field: Average score (%) without light irradiation. Item: CC1(C)SC2C(NC(=O)Cc3ccccc3)C(=O)N2C1C(=O)O (centres unmarked) [compound 44]
A) 1.6

Q) What measured Average score (%) without light irradiation goes with CC(CN1c2ccccc2Sc2ccccc21)N(C)C.Cl (racemic) [compound 14] ?
A) 15.6

Q) Which Average score (%) without light irradiation is reported for this molecule? CC(C)O [compound 47]
A) 0.8
